Target: Probable G-protein coupled receptor 139 (Rattus norvegicus) (UniProt P0C0W8)
Sequence (whole entry): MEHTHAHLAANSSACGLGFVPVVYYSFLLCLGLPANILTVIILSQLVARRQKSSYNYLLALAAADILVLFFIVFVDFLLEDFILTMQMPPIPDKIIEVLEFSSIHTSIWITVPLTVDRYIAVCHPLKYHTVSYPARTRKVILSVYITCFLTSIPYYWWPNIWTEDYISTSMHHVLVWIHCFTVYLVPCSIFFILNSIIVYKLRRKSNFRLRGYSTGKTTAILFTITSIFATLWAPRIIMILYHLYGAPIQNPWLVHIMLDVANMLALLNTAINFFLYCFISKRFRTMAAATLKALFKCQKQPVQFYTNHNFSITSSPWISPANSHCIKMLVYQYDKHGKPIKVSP
Assay: Agonist activity at rat GPR139 expressed in CHO-K1 cells assessed as increase in calcium flux by calcium 5 dye based FLIPR assay relative to JNJ63533054
Assay type: cell-based
Conditions: filed as agonist
measuredMetric: Emax (%)

Cc1ccnc2nn(CC(=O)N[C@@H](C)c3ccc(Cl)c(F)c3)c(=O)n12 ... 50
Cc1ccc([C@H](C)NC(=O)Cn2nc3c(N)cccn3c2=O)cc1 ... 50
COc1cccc2nn(CC(=O)N[C@@H](C)c3ccc(C)cc3)c(=O)n12 ... 50
